- Test system: UO-31 renal
- run-description: NCI tumour cell line growth inhibition, 48 h

molecule	TGI
Cc1cccc(C2=C/C(=C(\SS/C(C(=O)c3ccc(OCC(=O)O)c(Cl)c3Cl)=C3\C=C(c4cccc(C)c4)SS3)C(=O)c3ccc(OCC(=O)O)c(Cl)c3Cl)SS2)c1	32.2 µM
N[C@H](CCC(=O)N[C@@H](Cc1c[nH]c2ccccc12)C(=O)O)C(=O)O	> 100 µM
COC(=O)c1cc2c(cc1CC1Cc3cc4c(cc3C1)CCC4)CCC2	> 100 µM
O=C1NCCS(=O)(=O)N[C@@H](CC2=CC=CCC2)C(=O)N2CCCC12 (some centres undefined)	> 100 µM
CO[C@H]1Nc2c(ccc(C)c2O)C(=O)N2C=C(/C=C/C(N)=O)C[C@@H]12	0.0451 µM
O=C(CN(c1ccccc1)c1ccccc1)N1c2ccccc2C2C=CC=CC21 (centres undefined)	> 49.9 µM
O=C1NCC(NC(=O)C(F)(F)F)c2c(Br)sc(Br)c21 (centres undefined)	> 100 µM
CC(C)=C1CCC(CN(C)C)C1=O (centres undefined)	> 100 µM
Cn1cc(-c2csc(-c3cn(CCCCN4CCCCC4)c4ccccc34)n2)c2cccnc21	2.95 µM

---

- Test system: OVCAR-4 ovarian
- run-description: NCI tumour cell line growth inhibition, 48 h

compound	TGI
c1ccc2c(c1)c1c(n2CCOCCN2CCOCC2)CCCC1	86.8 µM
COC(=O)/C(=N/O)C(C(=O)C=C(C)C)C(=O)C(=O)Nc1nc2ccc([N+](=O)[O-])cc2s1 (stereo not drawn)	> 100 µM
O=C1NCCS(=O)(=O)N[C@@H](CC2=CC=CCC2)C(=O)N2CCCC12 (stereo partly drawn)	> 100 µM
CCNC(=O)/C(=C/c1ccc(OC)cc1)c1cc(OC)c(OC)c(OC)c1	> 100 µM
COc1ccc(C(CC(=O)c2ccc3c(c2)OCO3)c2c(O)c3ccccc3oc2=O)cc1OC (stereo not drawn)	> 100 µM
COC(C)(C)[C@@H](O)[C@H]1C[C@H](C)[C@@]2(CC[C@]3(C)[C@@H]2CC[C@@H]2[C@@]4(C)CC[C@@H](OC(C)=O)C(C)(C)[C@@H]4C[C@@H](OC4OC(COC(C)=O)C(O)C(O)C4O)[C@]23C)O1 (stereo partly drawn)	14.4 µM
O=C(Nc1cc(Nc2ncccc2-c2ncnc3nc[nH]c23)ccc1F)c1cc(C(F)(F)F)cc(C(F)(F)F)c1	4.34 µM
Cc1cn([C@@H]2C[C@H](CO)[C@@H](O)C2)c(=O)[nH]c1=O	> 100 µM

---

# TGI listing for each entry below
- Tested on: MDA-MB-435
- run-description: NCI tumour cell line growth inhibition, 48 h

compound	TGI
CCc1c[n+]([O-])c(C)cc1[N+](=O)[O-]	> 100 µM
O=C(Nc1cc(Nc2ncccc2-c2ncnc3nc[nH]c23)ccc1F)c1cc(C(F)(F)F)cc(C(F)(F)F)c1	> 10 µM
CN(C)CCNCCN	> 100 µM
COC(=O)C1C(O)C(C(=O)OC)C(C)N(C)C1C (stereo unspecified)	> 100 µM
COc1ccc(C(=O)c2cc(OC)c(OC)c(OC)c2)cc1OC	1.89 µM
COc1cc2cc(Oc3ccc(NC(=O)c4cc(C(F)(F)F)cc(C(F)(F)F)c4)cc3)c(C)nc2cc1OC	> 50 µM

---

# GI50 listing for each entry below
- System: NCI/ADR-RES ovarian
- run-description: NCI tumour cell line growth inhibition, 48 h

chemical-structure	tgt	GI50
CCCC/C(=C\C1=C(C)C(=O)C(OC)=C(OC)C1=O)C(=O)O	NCI/ADR-RES ovarian	> 100 µM
O=C1Nc2ccccc2/C1=C1\CCc2cc(O)ccc21	NCI/ADR-RES ovarian	7.65 µM
c1ccc2c(c1)[nH]c1c2cc[n+]2cc3c(cc12)CCCC3	NCI/ADR-RES ovarian	93.8 µM
COc1ccc(/C(C)=C(\c2ccc(OCCN3CCCCCC3)cc2)c2ccc(OC(=O)C3CCCCC3)cc2)cc1	NCI/ADR-RES ovarian	1.61 µM
CC(C)[C@H](O)C(=O)N[C@@H](C)C(=O)N[C@@H]1C(=O)N(C)CCc2ccccc21	NCI/ADR-RES ovarian	> 100 µM
CCCCCCCCCCNC(=O)CI	NCI/ADR-RES ovarian	2.32 µM
Cc1cn(-c2cc(C(=O)Nc3cccc(-n4ccc5c(NC(=O)c6ccccc6)nccc54)c3)cc(C(F)(F)F)c2)cn1	NCI/ADR-RES ovarian	1.13 µM
O=C(/C(=C\c1c(-c2ccccc2)[nH]c2ccccc12)S(=O)(=O)c1ccccc1)c1ccccc1	NCI/ADR-RES ovarian	> 100 µM
CC(C)c1[nH]nc2c1N=C(c1ccccc1Cl)c1cc([N+](=O)[O-])ccc1N2	NCI/ADR-RES ovarian	6.37 µM
CC1(C)CN=C(NN=C(/C=C/c2ccc(C(F)(F)F)cc2)/C=C/c2ccc(C(F)(F)F)cc2)NC1	NCI/ADR-RES ovarian	1.4 µM

---

- Tested on: EKVX NSCLC
- run-description: NCI tumour cell line growth inhibition, 48 h

compound	TGI
CCC1=NC(C(F)(F)F)(C(F)(F)F)N=C(N2CCOCC2)O1	> 100 µM
c1csc(-c2ccc(-c3cccs3)c3nsnc23)c1	> 100 µM
S=C(/N=c1\sc(Nc2ccc(Cl)cc2)nc2sc3c(c12)CCN(N1CCc2c(sc4nc(Nc5ccc(Cl)cc5)s/c(=N\C(=S)Nc5ccc(Cl)cc5)c24)C1)C3)Nc1ccc(Cl)cc1	> 100 µM
O=C1NCC(NC(=O)C(F)(F)F)c2c(Br)sc(Br)c21 (centres undefined)	> 100 µM
COC(=O)CN1c2nc(C#N)c(C#N)nc2N(CC(=O)OC)c2nc(C#N)c(C#N)nc21	> 51.3 µM
CC(C)=CCC/C(C)=C/COC(C)(C)C1=CCC(C)CC1 (centres undefined) (tested in a mixture with another compound)	> 100 µM
C[C@@H]1S[C@H](c2ccccc2F)N2Cc3ccccc3N=C12	95.9 µM
CC(=O)c1cccn1/C=C(\OC(=O)OC(C)(C)C)c1ccc[nH]1	> 100 µM
O=C(NCCCN(CCCCN(CCCNC(=O)C(F)(F)F)Cc1ccc2ccccc2c1)Cc1ccc2ccccc2c1)C(F)(F)F	> 100 µM

---

# TGI listing for each entry below
- Tested on: CCRF-CEM leukemia
- run-description: NCI tumour cell line growth inhibition, 48 h

molecule	TGI
Nc1cc2c(cc1Br)[nH]c(=O)c1ccccc12	59.5 µM
CC(C)c1[nH]nc2c1N=C(c1ccccc1Cl)c1cc([N+](=O)[O-])ccc1N2	> 17.8 µM
CCCCn1cnc2c(c(CC#N)nn2-c2ccccc2)c1=N	> 100 µM
O=C(/C=C/c1ccccc1)c1ccccc1	> 7.45 µM
N#CC(=Nc1ccccc1N(C(=O)c1ccccc1)C(=O)c1ccccc1)c1ccccc1	> 31.2 µM
CC(=O)OCC1OC(n2cc(I)c(=O)[nH]c2=O)C(OC(C)=O)C(OC(C)=O)C1OC(C)=O (configuration not stated)	> 100 µM
C[C@]12CC[C@@H]3c4ccc(O)cc4CC[C@H]3[C@@H]1C/C(=C\c1ccncc1)[C@@H]2O	> 100 µM
N[C@H](CCC(=O)N[C@@H](Cc1c[nH]c2ccccc12)C(=O)O)C(=O)O	> 100 µM
Cc1ccccc1C1=[N+]([O-])c2ccc(Cl)cc2C1=O	12.5 µM
O=C(Nc1ccccc1F)c1cc2ccc(O)cc2oc1=Nc1ccccc1F	3.79 µM
O=C1c2ccccc2-c2c1c1ccccc1c(=O)n2CCN1CCNCC1	4.26 µM
O=C(Nc1cc(Cl)ccc1O)c1ccc(Nc2ccnc(C(F)(F)F)c2)cc1	5.7 µM

---

- Tested on: RXF 393 renal
- run-description: NCI tumour cell line growth inhibition, 48 h; in the data active means GI50 below about 0.43 µM; inactive means the rest
Classes used: Y = active, N = inactive

molecule	tgt	group
C=CC(=O)N1CN(C(=O)C=C)CN(C(=O)C=C)C1	RXF 393 renal	N
COc1cc2cc(Oc3ccc(NC(=O)c4cc(C(F)(F)F)cc(C(F)(F)F)c4)cc3)c(C)nc2cc1OC	RXF 393 renal	N
COc1ccc(-c2cnnn2-c2nonc2-n2cccc2)cc1	RXF 393 renal	Y
O=C(/C(=C\c1c(-c2ccccc2)[nH]c2ccccc12)S(=O)(=O)c1ccccc1)c1ccccc1	RXF 393 renal	N
CC(C)c1[nH]nc2c1N=C(c1ccccc1Cl)c1cc([N+](=O)[O-])ccc1N2	RXF 393 renal	N
Nc1cc(Br)c(-c2nnc(CCC(=O)c3nc4ccccc4[nH]3)o2)c(Br)c1	RXF 393 renal	N
COc1cc2c(Nc3cc(Cl)c(OC)c(Cl)c3)c(C#N)cnc2cc1OCCCN1CCN(C)CC1	RXF 393 renal	N
COc1ccc(-c2nc(-c3cc(OC)cc(OC)c3)[nH]c2-c2ccc(OC)cc2)cc1	RXF 393 renal	N
N=C(N)c1ccc(-c2ccc(-c3cccs3)s2)cc1	RXF 393 renal	N
Nc1ccccc1O.O.O=C(O)C1[O][Sb][O]C1C(=O)O (stereo not given)	RXF 393 renal	N
